Experimental target: full length LRRK2 protein (Homo sapiens, UniProt Q5S007)
Construct: compounds were tested in triplicate with full length LRRK2 protein; made in house
Sequence (Q5S007 whole entry): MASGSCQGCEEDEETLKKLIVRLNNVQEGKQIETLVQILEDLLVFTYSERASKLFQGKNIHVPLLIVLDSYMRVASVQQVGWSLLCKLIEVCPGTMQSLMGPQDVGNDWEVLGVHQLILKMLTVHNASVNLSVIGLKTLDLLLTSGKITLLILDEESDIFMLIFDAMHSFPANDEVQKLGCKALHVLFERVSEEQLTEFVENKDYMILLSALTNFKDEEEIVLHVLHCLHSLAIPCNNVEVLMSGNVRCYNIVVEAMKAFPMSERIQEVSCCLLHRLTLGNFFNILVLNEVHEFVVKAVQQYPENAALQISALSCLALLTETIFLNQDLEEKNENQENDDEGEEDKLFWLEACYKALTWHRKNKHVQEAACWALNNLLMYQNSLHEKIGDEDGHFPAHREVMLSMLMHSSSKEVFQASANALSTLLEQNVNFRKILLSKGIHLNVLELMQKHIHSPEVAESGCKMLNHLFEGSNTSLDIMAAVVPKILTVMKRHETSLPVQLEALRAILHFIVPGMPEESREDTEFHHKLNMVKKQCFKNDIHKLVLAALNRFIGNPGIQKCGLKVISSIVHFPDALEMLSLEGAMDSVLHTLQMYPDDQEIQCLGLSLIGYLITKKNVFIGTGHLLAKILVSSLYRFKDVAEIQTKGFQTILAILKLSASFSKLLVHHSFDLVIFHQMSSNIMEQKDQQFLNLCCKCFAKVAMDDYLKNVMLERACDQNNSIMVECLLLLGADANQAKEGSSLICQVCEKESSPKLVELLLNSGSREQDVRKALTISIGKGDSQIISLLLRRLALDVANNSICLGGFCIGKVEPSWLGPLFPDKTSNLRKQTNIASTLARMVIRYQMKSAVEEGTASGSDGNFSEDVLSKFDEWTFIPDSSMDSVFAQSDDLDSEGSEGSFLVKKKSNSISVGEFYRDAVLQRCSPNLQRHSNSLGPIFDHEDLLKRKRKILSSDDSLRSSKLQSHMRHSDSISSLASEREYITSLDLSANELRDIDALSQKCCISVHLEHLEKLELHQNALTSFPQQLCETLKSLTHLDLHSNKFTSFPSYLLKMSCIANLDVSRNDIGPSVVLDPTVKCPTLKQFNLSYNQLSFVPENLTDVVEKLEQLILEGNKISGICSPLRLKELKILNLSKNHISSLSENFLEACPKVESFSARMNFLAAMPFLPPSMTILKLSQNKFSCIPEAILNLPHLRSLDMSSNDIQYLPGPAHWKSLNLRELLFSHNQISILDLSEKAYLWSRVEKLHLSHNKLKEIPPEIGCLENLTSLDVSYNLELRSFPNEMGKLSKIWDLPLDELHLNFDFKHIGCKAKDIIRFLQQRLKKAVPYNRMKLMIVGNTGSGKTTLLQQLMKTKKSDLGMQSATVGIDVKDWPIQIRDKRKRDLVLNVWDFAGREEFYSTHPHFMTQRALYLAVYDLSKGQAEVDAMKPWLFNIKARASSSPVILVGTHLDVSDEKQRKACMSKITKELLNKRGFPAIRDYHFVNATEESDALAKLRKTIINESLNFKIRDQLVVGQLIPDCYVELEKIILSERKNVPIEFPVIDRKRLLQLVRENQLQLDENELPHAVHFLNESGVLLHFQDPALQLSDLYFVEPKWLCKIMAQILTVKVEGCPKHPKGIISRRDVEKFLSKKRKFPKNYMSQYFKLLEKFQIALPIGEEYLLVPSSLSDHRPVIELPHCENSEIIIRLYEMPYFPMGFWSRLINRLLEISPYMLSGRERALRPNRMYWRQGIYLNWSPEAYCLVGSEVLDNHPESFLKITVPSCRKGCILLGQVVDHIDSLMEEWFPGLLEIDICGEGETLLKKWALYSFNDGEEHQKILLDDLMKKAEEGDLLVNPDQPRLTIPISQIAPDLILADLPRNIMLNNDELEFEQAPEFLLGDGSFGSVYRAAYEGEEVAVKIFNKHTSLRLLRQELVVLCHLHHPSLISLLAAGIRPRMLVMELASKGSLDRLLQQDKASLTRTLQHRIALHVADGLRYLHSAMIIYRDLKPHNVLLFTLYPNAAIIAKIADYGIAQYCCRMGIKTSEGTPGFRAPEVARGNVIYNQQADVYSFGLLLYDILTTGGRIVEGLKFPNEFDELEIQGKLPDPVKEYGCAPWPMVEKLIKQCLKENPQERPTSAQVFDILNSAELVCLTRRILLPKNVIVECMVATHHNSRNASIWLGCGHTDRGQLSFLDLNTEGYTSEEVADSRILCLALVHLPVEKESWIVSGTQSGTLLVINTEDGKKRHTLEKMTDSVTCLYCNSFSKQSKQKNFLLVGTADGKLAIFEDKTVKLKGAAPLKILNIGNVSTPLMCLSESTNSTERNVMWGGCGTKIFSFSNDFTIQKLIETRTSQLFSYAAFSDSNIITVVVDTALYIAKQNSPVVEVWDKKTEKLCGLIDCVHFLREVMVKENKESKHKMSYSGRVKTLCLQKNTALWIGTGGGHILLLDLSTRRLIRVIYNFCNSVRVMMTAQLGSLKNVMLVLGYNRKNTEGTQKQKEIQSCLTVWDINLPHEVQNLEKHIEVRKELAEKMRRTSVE
Assay text: In vitro LRRKtide kinase assay with full length recombinant LRRK2, dose-response (IC50/pIC50)
Assay type: biochemical
Condition notes: LRRKtide phosphorylation, dose-response
Readout name: pIC50 in vitro (lrrktide)

Compound | Comparator | Result value
CCn1cnc2c(Nc3cccc(Cl)c3)nc(N[C@H]3CCCC[C@H]3N)nc21 [Cdk1 inhibitor. CGP74514A] | = | 5.46
Cc1cc(C)c(/C=C2\C(=O)Nc3ccccc32)[nH]1 [VEGF receptor 2 kinase inhibitor III] | = | 6.56
Nc1ccc2ncnc(NCCc3ccc(Oc4ccccc4)cc3)c2c1 [NF-KB activation inhibitor] | < | 5
